Test system: McCoy cells
ASSAY NOTES: LIVE/DEAD viability/cytotoxicity assay, fluorescent images
Assay type: cell-based, mouse
CONDITION: 24 h, 4 MIC
Protocol: The cytotoxicity of peptides towards the mouse fibroblast cell line McCoy was determined via the LIVE/DEAD™ Viability/Cytotoxicity Kit (Thermo Fisher Scientific Inc., Waltham, MA, USA) according to the manufacturer′s recommendations, as performed previously. […] Melittin was used as a negative control, and McCoy cells treated without peptides were used as a positive control. […] The numbers of cells in both channels were quantified with the ImageJ software (version 1.48; RSB).
Where no end group is shown, it is not given here.
Classification field: enter yes for Cell Viability, % values not below 30%, no for values below it.

# SUBSTANCE, TARGET OR SYSTEM, DISCRETE LABEL
data = [
    ("FVKILAKLVNYAKN [pept_970]", "McCoy cells", "no"),
    ("KKGKSFKQLHIIVHLVKSWLRTILTHI [pept_352]", "McCoy cells", "no"),
    ("VLIRGLIHMLRGG [pept_148]", "McCoy cells", "yes"),
    ("IGRHFKRRNSIWGICWF [pept_1303]", "McCoy cells", "no"),
    ("IVKRFFRISYKLQSLKIIKGKRTFT [pept_84]", "McCoy cells", "no"),
    ("FLIGKAIKRKFCLRSVWNA-NH2 [pept_1545]", "McCoy cells", "yes"),
]

====

Tested on: S. aureus ST 88
Assay type: cell-based, Staphylococcus aureus
CONDITION: ST 88
Where no end group is shown, it is not given here.

# SUBSTANCE, TARGET OR SYSTEM, MIC
records = [
    ("IVKRFFRISYKLQSLKIIKGKRTFT [pept_84]", "S. aureus ST 88", ">100 µM"),
    ("IGRHFKRRNSIWGICWF [pept_1303]", "S. aureus ST 88", ">100 µM"),
    ("FVKILAKLVNYAKN [pept_970]", "S. aureus ST 88", ">100 µM"),
    ("FLIGKAIKRKFCLRSVWNA-NH2 [pept_1545]", "S. aureus ST 88", ">100 µM"),
    ("KKGKSFKQLHIIVHLVKSWLRTILTHI [pept_352]", "S. aureus ST 88", "19.9 µM"),
    ("VLIRGLIHMLRGG [pept_148]", "S. aureus ST 88", ">100 µM"),
]
